# Subject of test: UniProt:Q03405
# Sequence (Q03405 whole entry): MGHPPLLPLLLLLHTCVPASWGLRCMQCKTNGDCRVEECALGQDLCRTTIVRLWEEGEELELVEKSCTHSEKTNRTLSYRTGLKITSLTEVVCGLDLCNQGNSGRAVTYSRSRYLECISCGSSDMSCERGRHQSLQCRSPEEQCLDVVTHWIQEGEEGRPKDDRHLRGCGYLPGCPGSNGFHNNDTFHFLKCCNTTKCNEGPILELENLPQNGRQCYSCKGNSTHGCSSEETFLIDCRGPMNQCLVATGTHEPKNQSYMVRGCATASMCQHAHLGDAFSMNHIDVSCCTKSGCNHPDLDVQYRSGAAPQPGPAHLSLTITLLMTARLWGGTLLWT
Lab note: compare IC50 with 60 nM, writing yes if less and no if equal or more.

Use the examples below as a reference point.
CC[C@H](C)[C@@H]1NC(=O)[C@H](CC(N)=O)NC(=O)[C@H](CO)NC(=O)[C@H](Cc2ccccc2)NC(=O)[C@H](Cc2ccc(O)cc2)NC(=O)[C@H](CCCCN)NC(=O)[C@H](CC(N)=O)NC(=O)[C@H](N)CSSC[C@@H](C(=O)N[C@@H](Cc2c[nH]c3ccccc23)C(=O)O)NC1=O = yes
CC[C@H](C)[C@@H]1NC(=O)[C@H](CC(N)=O)NC(=O)[C@H](CO)NC(=O)[C@H](Cc2ccccc2)NC(=O)[C@H](Cc2ccc3ccccc3c2)NC(=O)[C@H](CCCCN)NC(=O)[C@H](CC(N)=O)NC(=O)[C@H](N)CSSC[C@@H](C(=O)N[C@@H](Cc2c[nH]c3ccccc23)C(=O)O)NC1=O = no
CC[C@H](C)[C@@H]1NC(=O)[C@H](CC(N)=O)NC(=O)[C@H](CO)NC(=O)[C@H](Cc2ccccc2)NC(=O)[C@H](Cc2ccc(O)cc2)NC(=O)[C@H](CCCCN)NC(=O)[C@@H](CC(N)=O)NC(=O)[C@@H](N)CSSC[C@@H](C(=O)N[C@@H](Cc2c[nH]c3ccccc23)C(=O)O)NC1=O = no
CC[C@H](C)[C@@H]1NC(=O)[C@H](CC(N)=O)NC(=O)[C@H](CO)NC(=O)[C@H](Cc2ccccc2)NC(=O)[C@H](Cc2ccc(O)cc2)NC(=O)[C@H](CCCCN)NC(=O)[C@H](CC(N)=O)NC(=O)[C@@H](N)CSSC[C@@H](C(=O)N[C@@H](Cc2c[nH]c3ccccc23)C(=O)O)NC1=O = no
CC[C@H](C)[C@@H]1NC(=O)[C@@H](CC(N)=O)NC(=O)[C@H](CO)NC(=O)[C@H](Cc2ccccc2)NC(=O)[C@H](Cc2ccc(O)cc2)NC(=O)[C@H](CCCCN)NC(=O)[C@H](CC(N)=O)NC(=O)[C@@H](N)CSSC[C@@H](C(=O)N[C@@H](Cc2c[nH]c3ccccc23)C(=O)O)NC1=O = no

## Input # strict comparison: is reported IC50 < 60 nM? input = CC[C@H](C)[C@@H]1NC(=O)[C@H](CC(N)=O)NC(=O)[C@H](CO)NC(=O)[C@H](Cc2ccccc2)NC(=O)[C@H](Cc2cccc3ccccc23)NC(=O)[C@H](CCCCN)NC(=O)[C@H](CC(N)=O)NC(=O)[C@H](N)CSSC[C@@H](C(=O)N[C@@H](Cc2c[nH]c3ccccc23)C(=O)O)NC1=O
## Output yes

----------
# Subject of test: UniProt:Q03405
Parameter: IC50 (nM)
Respond with the bare value in nM.

CC[C@H](C)[C@@H]1NC(=O)[C@H](CC(N)=O)NC(=O)[C@H](CO)NC(=O)[C@H](Cc2ccccc2)NC(=O)[C@H](Cc2ccc(O)cc2)NC(=O)[C@H](CCCCN)NC(=O)[C@H](CC(N)=O)NC(=O)[C@H](CO)NC(=O)[C@H](C(C)C)NC(=O)[C@H](N)CSSC[C@@H](C(=O)O)NC(=O)[C@H](Cc2c[nH]c3ccccc23)NC(=O)[C@H](Cc2c[nH]cn2)NC1=O = 200

## Input Query: IC50; subject: CC[C@H](C)[C@@H]1NC(=O)[C@H](CC(N)=O)NC(=O)[C@H](CO)NC(=O)[C@H](Cc2ccccc2)NC(=O)[C@H](Cc2ccc(O)cc2)NC(=O)[C@H](CCCCN)NC(=O)[C@H](CC(N)=O)NC(=O)[C@H](CO)NC(=O)[C@H](C(C)C)NC(=O)[C@@H](N)CSSC[C@@H](C(=O)O)NC(=O)[C@H](Cc2c[nH]c3ccccc23)NC(=O)[C@H](Cc2c[nH]cn2)NC1=O
## Output 700

Value source: ChEMBL document CHEMBL1135793
